Source: patent US11891387B2

- study.target: human MGL from HeLa cells (Homo sapiens (Human))
- protocol.summary: MGL in vitro activity assay: cleavage of [glycerol-1,3-3H]-oleyl glycerol, activated carbon filtration
- condition.summary: 300 nM [Glycerol-1,3-3H]-oleyl glycerol, endogenously expressed MGL from HeLa cells, one hour incubation
measured.quantity: IC50 (nM)

Previously resolved entries follow.
| compound | recorded.result |
| --- | --- |
| Cc1cc(C(=O)N2CCc3c(nn(C)c3-c3cc(C(F)(F)F)nn3C)[C@@H]2C)c2cnn(C)c2n1 | 56 |
| COc1cccc(C(=O)N2CCc3c(nn(C)c3-c3c(C(F)(F)F)nn(C)c3C)[C@@H]2C)c1C | 6700 |
| C[C@H]1c2nn(C)c(-c3cnn(C)c3C(F)(F)F)c2CCN1C(=O)c1n[nH]c2cc(F)cc(F)c12 | 2120 |

a: C[C@H]1c2nn(C)c(-c3cc(C(F)(F)F)nn3C)c2CCN1C(=O)c1cccc2nn(C)cc12
b: COc1cc(C)nc2ccc(C(=O)N3CCc4c(nn(C)c4-c4cc(C(F)(F)F)nn4C)[C@@H]3C)cc12
Ask: // pick min by IC50: a , b # reply format: chosen label
Result: a
(a: 84 nM, b: 10000 nM)

I: Cc1c(C(=O)N2CCc3c(nn(C)c3-c3cc(C(F)(F)F)nn3C)[C@@H]2C)ccc2ncsc12
II: C[C@H]1c2nn(C)c(-c3cc(C(F)(F)F)nn3C)c2CCN1C(=O)c1cc2scnc2cn1
III: C[C@H]1c2nn(C)c(-c3cc(C(F)(F)F)nn3C)c2CCN1C(=O)c1cccc2c1OCCC2
Ask: Sort the 3 compounds by IC50; largest first, smallest last. Kindly provide the labels arranged according to the requested ordering.
Result: II, I, III

1: C[C@H]1c2nn(C)c(-c3cc(C(F)(F)F)nn3C)c2CCN1C(=O)c1cnn2cc(F)cc(F)c12
2: C[C@H]1c2nn(C)c(-c3cc(C(F)(F)F)nn3C)c2CCN1C(=O)c1cnn2cccc(F)c12
Ask: Rank 1 against 2 by their IC50 values and give the higher one. # reply format: chosen label
Result: 1

P: COc1cccc(C(=O)N2CCc3c(nn(C)c3-c3cc(C(F)(F)F)nn3C)[C@@H]2C)c1C
Q: C[C@H]1c2nn(C)c(-c3cc(C(F)(F)F)nn3C)c2CCN1C(=O)c1ccnc2c1ccn2CC(F)(F)F
Ask: // pick min by IC50: P , Q # reply format: chosen label
Result: P

====

- study.target: human MGL from HeLa cells (Homo sapiens (Human), UniProt Q99685)
- Sequence (Q99685 whole entry): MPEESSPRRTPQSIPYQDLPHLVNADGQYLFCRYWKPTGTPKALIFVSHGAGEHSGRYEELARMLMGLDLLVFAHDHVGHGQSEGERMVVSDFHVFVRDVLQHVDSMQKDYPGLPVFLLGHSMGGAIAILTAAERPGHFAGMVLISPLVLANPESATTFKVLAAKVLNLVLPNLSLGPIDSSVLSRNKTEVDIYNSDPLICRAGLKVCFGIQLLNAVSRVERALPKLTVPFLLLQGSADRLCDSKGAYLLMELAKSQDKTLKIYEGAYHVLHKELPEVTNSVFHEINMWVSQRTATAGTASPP
- protocol.summary: MGL in vitro activity assay: cleavage of [glycerol-1,3-3H]-oleyl glycerol, activated carbon filtration
- condition.summary: 300 nM [Glycerol-1,3-3H]-oleyl glycerol, endogenously expressed MGL from HeLa cells, one hour incubation
measured.quantity: IC50 (nM)

a: C[C@H]1c2nn(C)c(-c3cc(C(F)(F)F)n(C)n3)c2CCN1C(=O)c1ccnc2c1cnn2C
b: CCn1ccc(-c2c3c(nn2C)[C@H](C)N(C(=O)c2ccc4ncccc4c2)CC3)n1
Ask: // pick min by IC50: a , b # reply format: chosen label
Result: a
(a: 47 nM, b: 4000 nM)

====

- study.target: human MGL from HeLa cells (Homo sapiens (Human))
- protocol.summary: MGL in vitro activity assay: cleavage of [glycerol-1,3-3H]-oleyl glycerol, activated carbon filtration
- condition.summary: 300 nM [Glycerol-1,3-3H]-oleyl glycerol, endogenously expressed MGL from HeLa cells, one hour incubation
pIC50: −log10 of the molar value.
measured.quantity: pIC50

Previously resolved entries follow.
| smiles.code | study.target | pIC50 |
| --- | --- | --- |
| C[C@H]1c2nn(C)c(-c3cc(C(F)(F)F)nn3C)c2CCN1C(=O)c1cccc(OC(F)(F)F)c1F | human MGL from HeLa cells (Homo sapiens (Human)) | 7.07 |
| Cc1ccc2cc(C(=O)N3CCc4c(nn(C)c4-c4cnn(C)c4C(F)(F)F)[C@@H]3C)cc(C)c2n1 | human MGL from HeLa cells (Homo sapiens (Human)) | 5.19 |
| COc1cc(Cl)cc(C(=O)N2CCc3c(nn(C)c3-c3cc(C(F)(F)F)nn3C)[C@@H]2C)c1 | human MGL from HeLa cells (Homo sapiens (Human)) | 7.42 |
| Cc1cc(C(=O)N2[C@@H]3CCC[C@H]2c2nn(C)c(-c4cc(C(F)(F)F)n(C)n4)c2C3)c2cc(F)ccc2n1 | human MGL from HeLa cells (Homo sapiens (Human)) | 8.18 |
| COc1nccc(C(=O)N2CCc3c(nn(C)c3-c3cnn(C)c3C(F)(F)F)[C@@H]2C)c1C | human MGL from HeLa cells (Homo sapiens (Human)) | 5.37 |

1: Cc1nc2cc(F)ccc2cc1C(=O)N1CCc2c(nn(C)c2-c2cc(C(F)(F)F)nn2C)[C@@H]1C
2: Cc1ccc(C(=O)N2CCc3c(nn(C)c3-c3cnn(C)c3C(F)(F)F)[C@@H]2C)c(F)c1
Ask: // pick min by pIC50: 1 , 2 # reply format: chosen label
Result: 2
